# System: Escherichia coli TOP10
# experiment_summary: shrunken log2 fold change of peptide-encoding DNA abundance (4.5 h post-induction vs induction); higher = less antimicrobial activity (less host growth inhibition)
# study_conditions: time post-induction: 4.5 h; library: site-saturation at positions 5, 18, 19, 20
value_type: shrunken log2 fold change
One number for each entry.

construct_sequence | shrunken log2 fold change
RRIRERPPRLPRPRPRPPEEPRP | 0.499

Would you mind giving shrunken log2 fold change for every sequence in the list below?
1. RRIRCRPPRLPRPRPRPATQPRP
2. RRIRHRPPRLPRPRPRPSTSPRP
3. RRIRWRPPRLPRPRPRPKQQPRP
4. RRIRWRPPRLPRPRPRPEMGPRP
5. RRIRYRPPRLPRPRPRPIGDPRP
6. RRIRRRPPRLPRPRPRPMFNPRP
7. RRIRLRPPRLPRPRPRPAQGPRP
8. RRIRVRPPRLPRPRPRPRGQPRP

Out:
[0.262, -0.478, -0.133, 0.271, -0.00783, -0.146, 0.376, 0.131]

Would you mind giving shrunken log2 fold change for every sequence in the list below?
1. RRIRRRPPRLPRPRPRPYIIPRP
2. RRIRFRPPRLPRPRPRPAHGPRP
3. RRIRFRPPRLPRPRPRPYLLPRP
4. RRIRTRPPRLPRPRPRPSMDPRP
5. RRIRDRPPRLPRPRPRPFLPPRP
6. RRIRARPPRLPRPRPRPDSHPRP

Out:
[-0.427, 0.418, -1.11, "2.57e-05", -0.358, -0.779]

* * *

# System: Escherichia coli TOP10;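 note: peptides expressed intracellularly from a pBAD plasmid library in pooled LB shake-flask culture, induced with 0.3% L-arabinose, DNA abundance read by NGS, three biological replicates, DESeq2 with apeglm shrinkage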
# experiment_summary: shrunken log2 fold change of peptide-encoding DNA abundance (4.5 h post-induction vs induction); higher = less antimicrobial activity (less host growth inhibition)
# study_conditions: time post-induction: 4.5 h; library: site-saturation at positions 5, 18, 19, 20
value_type: shrunken log2 fold change
Answers are plain numbers.

Would you mind giving shrunken log2 fold change for every sequence in the list below?
1. RRIRCRPPRLPRPRPRPLRWPRP
2. RRIRGRPPRLPRPRPRPWDCPRP
3. RRIRVRPPRLPRPRPRPPPPPRP
4. RRIRRRPPRLPRPRPRPTFYPRP
5. RRIRSRPPRLPRPRPRPNSQPRP

Out:
1: 0.613; 2: -0.0637; 3: 1; 4: 0.191; 5: -0.118

Would you mind giving shrunken log2 fold change for every sequence in the list below?
1. RRIRTRPPRLPRPRPRPVNEPRP
2. RRIRARPPRLPRPRPRPTPEPRP
3. RRIRHRPPRLPRPRPRPYSFPRP
4. RRIRIRPPRLPRPRPRPPEIPRP
5. RRIRMRPPRLPRPRPRPGQCPRP

Out:
1: -0.103; 2: 0.694; 3: -0.299; 4: -0.578; 5: 0.234

Would you mind giving shrunken log2 fold change for every sequence in the list below?
1. RRIRIRPPRLPRPRPRPHRWPRP
2. RRIRFRPPRLPRPRPRPGQPPRP
3. RRIRMRPPRLPRPRPRPPEMPRP
4. RRIRIRPPRLPRPRPRPATTPRP
5. RRIRRRPPRLPRPRPRPKPEPRP
6. RRIRSRPPRLPRPRPRPIKDPRP

Out:
1. -0.0221
2. 0.199
3. 0.329
4. -0.145
5. 0.489
6. -0.224
